Subject of test: recombinant human EGFR exon 19 deletion/C797S double mutant protein (Homo sapiens (Human), UniProt P00533, C797S/DEL746-750)
Sequence (P00533 other isoform, or with tags, fused parts or gaps C797S/del 1-668/del 746-750 limits assumed): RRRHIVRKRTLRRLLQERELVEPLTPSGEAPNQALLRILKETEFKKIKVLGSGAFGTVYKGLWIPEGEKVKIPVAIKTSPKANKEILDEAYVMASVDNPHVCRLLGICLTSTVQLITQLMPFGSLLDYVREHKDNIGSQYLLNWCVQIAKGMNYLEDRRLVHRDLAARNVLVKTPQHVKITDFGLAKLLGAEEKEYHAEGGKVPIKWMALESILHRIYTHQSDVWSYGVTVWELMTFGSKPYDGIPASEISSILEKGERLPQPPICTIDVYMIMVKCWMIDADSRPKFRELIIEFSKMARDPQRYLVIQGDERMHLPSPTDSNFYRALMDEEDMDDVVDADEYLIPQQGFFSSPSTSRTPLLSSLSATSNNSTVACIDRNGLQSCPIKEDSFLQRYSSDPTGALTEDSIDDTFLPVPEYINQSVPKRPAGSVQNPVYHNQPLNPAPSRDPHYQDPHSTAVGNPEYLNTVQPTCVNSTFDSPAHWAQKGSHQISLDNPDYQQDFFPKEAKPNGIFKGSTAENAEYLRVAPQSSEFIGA
Assay method text: Biological Activity Assay C: biochemical assay against EGFR exon 19 deletion/C797S protein (EGFR d19/CS)
Please respond with reported pIC50 for every item in the list.
Answers are plain numbers, as −log10 of the molar value.

Requested field: pIC50. Item: CC(C)(O)CCn1cc(-c2ncnc3sc(-c4ccccc4)cc23)c(-c2ccc(F)cc2)n1 [Example 67] 7.73

Proceed to Cn1cnc(-c2cc3c(-c4cn([C@H]5C[C@@H](S(C)(=O)=O)C5)nc4-c4ccc(F)cc4)ncnc3o2)c1 [Example 259] 10.00

Follow-up entry: CC(C)(O)Cn1cc(-c2ncnc3oc(-c4ccccc4)cc23)c(-c2ccccc2)n1 [Example 110] 9.48

Quick one: give me pIC50 for each item below, same order please.
1. Cc1nn(C)cc1-c1cc2c(-c3cn(CC(C)(C)O)nc3-c3ccc(F)cc3)ncnc2o1 [Example 251]
2. Cn1cc(-c2cc3c(-c4cn([C@H]5C[C@@H](S(C)(=O)=O)C5)nc4-c4ccc(F)cc4)ncnc3o2)cn1 [Example 256]
3. O=S1(=O)CC(n2cc(-c3ncnc4oc(-c5c[nH]cn5)cc34)c(-c3ccc(F)cc3)n2)C1 [Example 216]
4. O=S1(=O)CC[C@H](n2cc(-c3ncnc4oc(-c5ccccc5)cc34)c(-c3ccc(F)cc3)n2)C1 (single isomer, unassigned) [Example 73]
5. NC(=O)c1ccccc1-c1cc2c(-c3cn(C4CS(=O)(=O)C4)nc3-c3ccc(F)cc3)ncnc2o1 [Example 183]
6. CC(C)(O)Cn1cc(-c2ncnc3oc(-c4ccccc4Cl)cc23)c(-c2ccc(F)cc2)n1 [Example 262]
7. CC(C)(O)Cn1cc(-c2ncnc3oc(-c4cccnc4)cc23)c(-c2ccc(F)cc2)n1 [Example 255]

[9.70, 9.72, 10.22, 9.32, 9.85, 9.40, 9.33]

---

Please provide measured pIC50 for the entries that follow.
Subject of test: recombinant human EGFR exon 19 deletion/C797S double mutant protein (Homo sapiens (Human), UniProt P00533, C797S/DEL746-750)
Assay method text: Biological Activity Assay C: biochemical assay against EGFR exon 19 deletion/C797S protein (EGFR d19/CS)
Answers are plain numbers, as −log10 of the molar value.

Item under review: CNC(=O)CCc1nc(-c2ccc(F)cc2)c(-c2ncnc3oc(-c4ccccc4)cc23)o1 . Reported pIC50? 8.87

Then what about the compound O=S1(=O)CC(n2cc(-c3ncnc4oc(C5=CCCNC5)cc34)c(-c3ccc(F)cc3)n2)C1 ? 8.42

// repeat for O=S1(=O)CC(n2cc(-c3ncnc4oc(C5=CNCCC5)cc34)c(-c3ccc(F)cc3)n2)C1 and report 9.12

// batch mode: one pIC50 value per listed entry
1. Cn1cnc(-c2cc3c(-c4cn([C@H]5C[C@H](O)C5)nc4-c4ccc(F)cc4)ncnc3o2)c1
2. N#Cc1c(-c2ccc(F)cc2)c(-c2ccnc3[nH]c(-c4ccccc4)cc23)nn1CCCO
3. O=S1(=O)CC(n2cc(-c3ncnc4oc(-c5ccsn5)cc34)c(-c3ccc(F)cc3)n2)C1
4. CN1CC=C(c2cc3c(-c4cn(CCCO)nc4-c4ccc(F)cc4)ccnc3[nH]2)CC1
5. OCCCc1cc(-c2ccnc3[nH]c(-c4ccccc4)cc23)n(-c2ccc(F)cc2)n1
6. CS(=O)(=O)CCn1cc(-c2ncnc3[nH]c(-c4ccccc4)nc23)c(-c2ccc(F)cc2)n1

1. 9.91
2. 8.80
3. 9.62
4. 8.48
5. 9.14
6. 8.98
